The compounds listed here are annotated with their Kusebauch 24 h, RT: Percent Cleavage of Tag [by UV350 - Peptide-Tag vs. Tag].
system.tested: Trypsin (Sus scrofa)
Construct: purchased Promega Corporation V511
Sequence (P00761 9-231): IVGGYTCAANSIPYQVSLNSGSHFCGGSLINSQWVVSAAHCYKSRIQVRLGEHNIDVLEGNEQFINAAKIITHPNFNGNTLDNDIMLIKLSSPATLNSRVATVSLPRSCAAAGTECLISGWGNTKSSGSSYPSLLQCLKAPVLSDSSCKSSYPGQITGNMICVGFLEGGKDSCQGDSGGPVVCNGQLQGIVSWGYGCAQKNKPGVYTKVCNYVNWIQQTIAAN
procedure.text: Trypsin cleavage of N-terminal quantification tag Ac-nitroTyr-SGK- from peptides, LC-MS with UV detection at 350 nm
Assay type: biochemical
measurement.parameters: trypsin protocol of example 9, 24 h, RT
Protocol: Trypsin Activation: Trypsin (20 μg, sequencing grade modified trypsin, Promega Corporation, Madison, Wis., USA, catalogue no. V511, specific activity 16.965 u/mg) was dissolved in Trypsin resuspension buffer (200 μL, Promega, catalogue no. V542A, ingredient 50 mM acetic acid) and incubated for 15 min at 37° C. Reduction and alkylation: The peptide (approx. 0.05 mg) was dissolved in 1 M urea and 100 mM fresh ammonium hydrogen carbonate (300 μL). […] Finally, the sample was analyzed by LC-MS at 350 nm. […]
Square brackets hold non-standard residues; d marks the D form. Peptide text beside a SMILES is read from it. Tyr(3-NO2) = N[C@@H](Cc1ccc(O)c([N+](=O)[O-])c1)C(=O)O
reported.property: Kusebauch 24 h, RT: Percent Cleavage of Tag [by UV350 - Peptide-Tag vs. Tag] (%)

1. CC[C@H](C)[C@H](NC(=O)[C@H](Cc1ccccc1)NC(=O)[C@H](Cc1ccc(O)cc1)NC(=O)[C@H](Cc1c[nH]cn1)NC(=O)[C@@H](NC(=O)[C@H](Cc1ccccc1)NC(=O)[C@H](CCCCN)NC(=O)CNC(=O)[C@H](CO)NC(=O)[C@H](Cc1ccc(O)c([N+](=O)[O-])c1)NC(C)=O)[C@@H](C)O)C(=O)N[C@@H](CC(=O)O)C(=O)N[C@@H](CC(C)C)C(=O)N[C@@H](CC(N)=O)C(=O)N[C@@H](CCCCN)C(=O)O [Peptide 5, Ac-nitroTyr-SGKFTHYFIDLN-K-OH] (Ac-[Tyr(3-NO2)]SGKFTHYFIDLNK-OH): 99.0
2. CC[C@H](C)[C@H](NC(=O)[C@H](Cc1ccccc1)NC(=O)[C@H](Cc1ccc(O)cc1)NC(=O)[C@H](Cc1c[nH]cn1)NC(=O)[C@@H](NC(=O)[C@H](CCCNC(=N)N)NC(=O)[C@H](CCCCN)NC(=O)CNC(=O)[C@H](CO)NC(=O)[C@H](Cc1ccc(O)c([N+](=O)[O-])c1)NC(C)=O)[C@@H](C)O)C(=O)N[C@@H](CC(=O)O)C(=O)N[C@@H](CC(C)C)C(=O)N[C@@H](CC(N)=O)C(=O)N[C@@H](CCCCN)C(=O)O [Peptide 15, Ac-nitroTyr-SGKRTHYFIDLN-K-OH] (Ac-[Tyr(3-NO2)]SGKRTHYFIDLNK-OH): 100.0
